B1: Ankyrin repeat and SAM domain-containing protein 6, residues 774 to 836; numbered along this chain, Q68DC2 (parent)
chain: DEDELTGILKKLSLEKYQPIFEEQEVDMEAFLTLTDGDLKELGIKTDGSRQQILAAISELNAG

Variants of: B1
assay.explanation: abundance fitness (aPCA) (normalised: wild type 0, dead -1); higher = more abundant; growth selection in yeast, the domain comes from the species named
conditions.used: Homo sapiens
We use -0.1 as the dividing line for abundance fitness: on or above the line is label 1, below is label 0.

Consider the worked cases shown below.
INSERT INTO assay_data (macromolecule_sequence, assigned_class) VALUES
  ('DEDELTGILKKVSLEKYQPIFEEQEVDMEAFLTLTDGDLKELGIKTDGSRQQILAAISELNAG', 'label 0'),
  ('DEDKLTGILKKLSLEKYQPIFEEQEVDMEAFLTLTDGDLKELGIKTDGSRQQILAAISELNAG', 'label 0'),
  ('DEDELTGILKKLSLEKYQPIFEEQEVDMEAFLTLTDGDLKELGIKTDGNRQQILAAISELNAG', 'label 1'),
  ('DEDELTGILKKLSLEKYQPIEEEQEVDMEAFLTLTDGDLKELGIKTDGSRQQILAAISELNAG', 'label 0');

Req: API: above_or_equal(metric=abundance fitness, cutoff=-0.1) for item DEDELTGILKKLSLEKYQPIFEEQEVDMEAFLTLTDGDLKELGIKTDGWRQQILAAISELNAG
Resp: label 0

Req: abundance fitness >= -0.1 for DEDELTGILKKLSLEKYQPIFEEQEVDMEAFLTLTDGDLTELGIKTDGSRQQILAAISELNAG ?
Resp: label 0

Req: Form field: abundance fitness at least -0.1? Entry: DEDELTGILKKLSLEKYQPMFEEQEVDMEAFLTLTDGDLKELGIKTDGSRQQILAAISELNAG
Resp: label 1

Req: API: above_or_equal(metric=abundance fitness, cutoff=-0.1) for item DEDELTGILKKLSLEKYQPIFEEQEVDMEAFLTLTDGDLKELGIKTLGSRQQILAAISELNAG
Resp: label 1
